# STUDY SYSTEM: TRET1 (Polypedilum vanderplanki, UniProt A5LGM7)
# Construct: ORF of either Tret1, DmTret1, AmTret1, AgTret1 or BmTret1 cDNA was amplified with PCR; expressed in transfected cells; host or cells: Xenopus laevis oocytes injected with cRNA
# Sequence (A5LGM7 whole entry): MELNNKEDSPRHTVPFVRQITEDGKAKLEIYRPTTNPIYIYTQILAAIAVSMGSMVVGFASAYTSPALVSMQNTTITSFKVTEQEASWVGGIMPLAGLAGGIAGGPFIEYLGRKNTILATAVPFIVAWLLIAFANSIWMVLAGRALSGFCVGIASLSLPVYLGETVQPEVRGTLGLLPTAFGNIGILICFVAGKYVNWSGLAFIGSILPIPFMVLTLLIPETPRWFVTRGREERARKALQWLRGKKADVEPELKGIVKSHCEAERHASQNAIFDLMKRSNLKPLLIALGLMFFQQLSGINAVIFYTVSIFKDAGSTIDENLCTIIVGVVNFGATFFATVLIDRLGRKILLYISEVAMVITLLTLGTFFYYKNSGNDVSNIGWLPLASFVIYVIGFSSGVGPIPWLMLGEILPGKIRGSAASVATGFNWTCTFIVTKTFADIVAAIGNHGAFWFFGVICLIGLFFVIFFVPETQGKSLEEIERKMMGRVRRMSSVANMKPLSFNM
# Format: cell-based
# CONDITION LABEL: 105 mM of sugar, 3 h, Xenopus oocytes
ENDPOINT: transport of sugar by TRET1 (substrate selectivity)

COMPOUND	RECORDED VALUE
OC[C@H]1O[C@@H](O[C@H]2[C@H](O)[C@@H](O)C(O)O[C@@H]2CO)[C@H](O)[C@@H](O)[C@H]1O (stereo partly shown)	not transported
OC[C@H]1O[C@@](CO)(O[C@H]2O[C@H](CO)[C@@H](O)[C@H](O)[C@H]2O)[C@@H](O)[C@@H]1O	not transported
OC[C@H]1O[C@H](O[C@H]2[C@H](O)[C@@H](O)[C@H](O)O[C@@H]2CO)[C@H](O)[C@@H](O)[C@@H]1O	not transported

The reported numbers originate from patent US7892789B2.
